Molecular target: rα7 nAChR (Rattus norvegicus, UniProt Q05941)
Sequence (Q05941 23-502): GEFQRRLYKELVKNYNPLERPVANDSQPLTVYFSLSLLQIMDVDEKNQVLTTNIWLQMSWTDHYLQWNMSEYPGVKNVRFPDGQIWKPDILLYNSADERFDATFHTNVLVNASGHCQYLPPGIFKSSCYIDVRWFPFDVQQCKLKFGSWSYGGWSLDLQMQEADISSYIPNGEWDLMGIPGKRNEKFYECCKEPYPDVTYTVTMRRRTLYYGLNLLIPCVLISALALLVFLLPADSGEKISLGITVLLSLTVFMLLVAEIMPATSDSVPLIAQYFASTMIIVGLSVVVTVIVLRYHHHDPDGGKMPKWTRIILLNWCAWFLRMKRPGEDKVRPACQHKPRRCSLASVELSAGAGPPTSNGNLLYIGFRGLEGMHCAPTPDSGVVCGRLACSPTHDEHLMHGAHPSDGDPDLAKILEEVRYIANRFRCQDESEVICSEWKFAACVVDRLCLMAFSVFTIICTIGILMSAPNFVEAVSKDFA
Positions of bridges follow the written chain, without caps; N, C: chain ends. Residues, ends and D or L forms follow the SMILES beside them.
Provide the reported log10 IC50 of each item.
Log10 applied to IC50; unit prior to transform: nM.

Entry CC[C@H](C)[C@@H]1NC(=O)[C@H](Cc2c[nH]cn2)NC(=O)[C@@H]2CCCN2C(=O)[C@H](CC(N)=O)NC(=O)[C@H](CC(N)=O)NC(=O)[C@H](C(C)C)NC(=O)[C@H](CC(N)=O)NC(=O)[C@@H]2CSSC[C@H](NC(=O)CN)C(=O)N[C@@H](CSSC[C@@H](C(N)=O)NC1=O)C(=O)N[C@@H](CO)C(=O)N[C@@H](Cc1c[nH]cn1)C(=O)N[C@@H](C)C(=O)N[C@@H](C)C(=O)N2 [[P6A]RegIIA] (H-GCCSHAACNVNNPHIC-NH2; disulfide 2-8, 3-16) ; log10 IC50 = 2.66

CC[C@H](C)[C@@H]1NC(=O)[C@H](Cc2c[nH]cn2)NC(=O)[C@@H]2CCCN2C(=O)[C@H](CC(N)=O)NC(=O)[C@H](CC(N)=O)NC(=O)[C@H](C(C)C)NC(=O)[C@H](CC(N)=O)NC(=O)[C@@H]2CSSC[C@H](NC(=O)CN)C(=O)N[C@@H](CSSC[C@@H](C(N)=O)NC1=O)C(=O)N[C@@H](C)C(=O)N[C@@H](Cc1c[nH]cn1)C(=O)N1CCC[C@H]1C(=O)N[C@@H](C)C(=O)N2 [[S4A]RegIIA] (H-GCCAHPACNVNNPHIC-NH2; disulfide 2-8, 3-16) yielded log10 IC50 of 1.59

Recorded result, CC[C@H](C)[C@@H]1NC(=O)[C@H](Cc2c[nH]cn2)NC(=O)[C@@H]2CCCN2C(=O)[C@H](CC(N)=O)NC(=O)[C@H](CC(N)=O)NC(=O)[C@H](C(C)C)NC(=O)[C@H](CC(N)=O)NC(=O)[C@@H]2CSSC[C@H](NC(=O)CN)C(=O)N[C@@H](CSSC[C@@H](C(N)=O)NC1=O)C(=O)N[C@@H](CO)C(=O)N[C@@H](C)C(=O)N1CCC[C@H]1C(=O)N[C@@H](C)C(=O)N2 [[H5A]RegIIA] (H-GCCSAPACNVNNPHIC-NH2; disulfide 2-8, 3-16) , log10 IC50: 2.65

log10 IC50 in this record for CC[C@H](C)[C@@H]1NC(=O)[C@H](Cc2c[nH]cn2)NC(=O)[C@@H]2CCCN2C(=O)[C@H](CC(N)=O)NC(=O)[C@H](CC(N)=O)NC(=O)[C@H](C(C)C)NC(=O)[C@H](CC(N)=O)NC(=O)[C@@H]2CSSC[C@H](NC(=O)CN)C(=O)N[C@@H](CSSC[C@@H](C(N)=O)NC1=O)C(=O)N[C@@H](CO)C(=O)N[C@@H](C(C)C)C(=O)N1CCC[C@H]1C(=O)N[C@@H](C)C(=O)N2 [[H5V]RegIIA] (H-GCCSVPACNVNNPHIC-NH2; disulfide 2-8, 3-16) : 1.99

log10 IC50 recorded for this compound, CC[C@H](C)[C@@H]1NC(=O)[C@H](Cc2c[nH]cn2)NC(=O)[C@@H]2CCCN2C(=O)[C@H](CC(N)=O)NC(=O)[C@H](CC(N)=O)NC(=O)[C@H](C(C)C)NC(=O)[C@H](CC(N)=O)NC(=O)[C@@H]2CSSC[C@H](NC(=O)CN)C(=O)N[C@@H](CSSC[C@@H](C(N)=O)NC1=O)C(=O)N[C@@H](CO)C(=O)NCC(=O)N1CCC[C@H]1C(=O)N[C@@H](C)C(=O)N2 [[H5G]RegIIA] (H-GCCSGPACNVNNPHIC-NH2; disulfide 2-8, 3-16) , is 3.55
